Recorded values, source patent US20160326264A1.

# ASSAY_TARGET: T1, endogenous human PSMA (prostate-specific membrane antigen) expressed on LNCaP human prostate cancer cells (human, UniProt Q04609 1-750)
# T1 construct: whole, on cells; also called PSMA-expressing LNCaP cells
# T1 sequence (Q04609 whole entry): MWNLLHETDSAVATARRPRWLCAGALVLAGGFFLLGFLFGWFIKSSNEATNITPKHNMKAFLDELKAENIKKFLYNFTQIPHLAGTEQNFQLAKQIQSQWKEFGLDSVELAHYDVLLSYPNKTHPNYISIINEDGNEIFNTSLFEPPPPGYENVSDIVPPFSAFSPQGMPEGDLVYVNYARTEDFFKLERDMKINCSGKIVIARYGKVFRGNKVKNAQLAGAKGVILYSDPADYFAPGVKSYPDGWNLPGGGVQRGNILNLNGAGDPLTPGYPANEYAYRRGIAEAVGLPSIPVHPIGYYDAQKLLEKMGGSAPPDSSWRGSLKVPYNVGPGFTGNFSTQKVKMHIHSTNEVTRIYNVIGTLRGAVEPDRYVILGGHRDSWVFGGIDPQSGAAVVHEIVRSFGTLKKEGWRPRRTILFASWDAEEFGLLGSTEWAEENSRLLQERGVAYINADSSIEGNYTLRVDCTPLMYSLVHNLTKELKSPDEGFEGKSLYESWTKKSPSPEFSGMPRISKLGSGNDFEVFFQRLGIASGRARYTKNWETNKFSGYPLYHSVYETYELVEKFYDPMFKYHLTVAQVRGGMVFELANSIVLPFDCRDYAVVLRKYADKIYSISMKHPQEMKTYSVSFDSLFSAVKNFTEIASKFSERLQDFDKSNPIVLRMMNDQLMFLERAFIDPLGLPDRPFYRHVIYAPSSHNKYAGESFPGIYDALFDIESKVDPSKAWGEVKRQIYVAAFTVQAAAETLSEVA
# METHOD_SUMMARY: flow cytometry on LNCaP cells
ATTRIBUTE_MEASURED: pEC50
Just so you know, pEC50 here is -log10 of the concentration in molar units; reply with that number alone.

The reported value for anti-PSMA antibody PSGD4 (antibody, V domains shown, Fully human IgG) VH: QVQLVQSGGGLVQPGGSLRLSCAASGFTFSSYWMSWVRQAPGKGLEWVANIKQDGSEKYYVDSVKGRFTISRDNAKNSLYLQMNSLRAEDTAVYYCARVWDYYYDSSGDAFDIWGQGTMVTVSS VL: DIVMTQSPSSLSASVGDRVSITCRASQGISTWLAWYQQKPGKAPDLLIYAASNLQSGVPSRFSGSGSGTDFTLTISSLQPEDFATYYCQQANSFPLTFGGGTKVEIK in terms of pEC50 is 8.80

The reported value for anti-PSMA antibody PSGE10 (antibody, V domains shown, Fully human IgG) VH: QVQLVQSGGGLVQPGGSLRLSCAASGFTFSSYWMSWVRQAPGKGLEWVANIKQDGSEKYYVDSVKGRFTISRDNAKNSLYLQMNSLRAEDTAVYYCARVWDYYYDSSGDAFDIWGQGTMVTVSS VL: DVVMTQSPSSVSASVGDRVTITCRASQGISSWLAWYQQKPGKAPKLLIYAASTLQSGVPSRFSGSGSGTDFTLTINNLQPEDFATYYCQQTASFPINFGGGTKVEIK in terms of pEC50 is 8.72

The reported value for anti-PSMA antibody PSGH3 (antibody, V domains shown, Fully human IgG) VH: QVQLVQSGGGLVQPGGSLRLSCAASGFTFSSYWMSWVRQAPGKGLEWVANIKQDGSEKYYVDSVKGRFTISRDNAKNSLYLQMNSLRAEDTAVYYCARVWDYYYDSSGDAFDIWGQGTMVTVSS VL: DIVMTQSPSSVSASVGDRVTITCRASQGISNWLAWYQQKPGKAPKLLIYVASSLQSGVPSRFSGSGSGTDFTLTISSLQPEDFATYYCQQANSFPITFGQGTRLEIK in terms of pEC50 is 8.43

The reported value for anti-PSMA antibody PSA11 (antibody, V domains shown, Fully human IgG (detected with anti-human IgG, gamma-chain specific)) VH: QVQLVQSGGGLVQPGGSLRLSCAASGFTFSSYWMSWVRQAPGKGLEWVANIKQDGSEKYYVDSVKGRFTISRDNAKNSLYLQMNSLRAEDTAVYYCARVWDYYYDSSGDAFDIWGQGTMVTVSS VL: VIWMTQSPSSVSASVGDRVTITCRASQGISSWLAWYQQKPGKAPKLLIYAASNLQSGVPSRFSGSGSGTDFTLTISSLQPEDFATYYCQQANSFPLTFGGGTKVDIK in terms of pEC50 is 8.62
